Assay: Solubility of rapamycin in reconstituted suspension by light scattering
Format: physicochemical
Settings: saline or isotonic; reconstituted suspension of the pharmaceutical composition in 0.9% saline; mean±95% CI
assay readout: solubility (µg/mL)
Provide only the numeric value, understood in µg/mL.

I would be grateful if you could share the reported solubility for CO[C@H]1C[C@@H]2CC[C@@H](C)[C@@](O)(O2)C(=O)C(=O)N2CCCC[C@H]2C(=O)O[C@H]([C@H](C)C[C@@H]2CC[C@@H](O)[C@H](OC)C2)CC(=O)[C@H](C)/C=C(\C)[C@@H](O)[C@@H](OC)C(=O)[C@H](C)C[C@H](C)/C=C/C=C/C=C/1C .
16.1
